Each recorded value in this set is attributed to ChEMBL document CHEMBL1135083.

# Target entity: Hepatitis C virus serine protease, NS3/NS4A (Hepatitis C virus, UniProt A3EZI9+D2K2A8)
# Sequence (D2K2A8 whole entry): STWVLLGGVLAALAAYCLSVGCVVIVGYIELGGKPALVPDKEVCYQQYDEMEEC
# Sequence (A3EZI9 whole entry): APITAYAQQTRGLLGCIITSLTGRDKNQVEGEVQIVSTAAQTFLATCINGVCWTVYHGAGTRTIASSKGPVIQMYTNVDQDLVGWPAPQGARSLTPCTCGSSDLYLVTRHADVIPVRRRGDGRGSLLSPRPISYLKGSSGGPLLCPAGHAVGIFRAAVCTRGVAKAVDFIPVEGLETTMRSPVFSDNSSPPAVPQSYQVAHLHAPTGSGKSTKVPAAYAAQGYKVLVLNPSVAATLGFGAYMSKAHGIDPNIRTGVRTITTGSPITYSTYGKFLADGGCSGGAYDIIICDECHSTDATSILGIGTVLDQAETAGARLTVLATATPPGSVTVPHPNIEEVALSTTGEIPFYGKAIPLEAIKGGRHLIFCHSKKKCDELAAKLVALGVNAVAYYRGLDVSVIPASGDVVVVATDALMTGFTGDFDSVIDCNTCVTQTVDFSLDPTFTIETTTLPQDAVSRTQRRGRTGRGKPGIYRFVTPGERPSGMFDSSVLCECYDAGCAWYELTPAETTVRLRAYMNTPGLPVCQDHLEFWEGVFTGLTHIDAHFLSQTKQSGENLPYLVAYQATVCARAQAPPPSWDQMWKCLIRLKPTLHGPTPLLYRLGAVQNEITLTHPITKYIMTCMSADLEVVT
# Assay explanation: Inhibition of hepatitis C virus (HCV) NS3/NS4A serine protease
Numbered stars: 1 amine (or outer) side, 2 acyl side, 3 side chain; on linkers, the order of the positions; unused ones are H or OH. Square brackets hold non-standard residues; d marks the D form. Peptide text beside a SMILES is read from it. * marks the point of attachment. Dip = N[C@H](C(=O)O)C(c1ccccc1)c1ccccc1; X3 = O=C(c1nc2ccccc2s1)[C@H](CC(F)F)N*; X6 = O=C(c1nc2ccccc2o1)[C@H](CC(F)F)N*; X5 = O=C([C@@H](CC(F)F)N[*:1])[*:2]; X2 = COC(=O)C(=O)[C@H](CC(F)F)N*; X7 = O=C(O)C(=O)[C@H](CC(F)F)N*; Cha = N[C@@H](CC1CCCCC1)C(=O)O
Readout name: Ki (nM)
Quick reminder: number only, in nM, skip the unit.

Bench note: what Ki did COC(=O)C(=O)[C@H](CC(F)F)NC(=O)[C@H](CC1CCCCC1)NC(=O)[C@H](CCC(=O)O)NC(=O)[C@@H](NC(=O)[C@H](CCC(=O)O)NC(=O)[C@H](CC(=O)O)NC(C)=O)C(c1ccccc1)c1ccccc1 (Ac-DE[Dip]E[Cha]-X2) show?
2

One more compound: CC(=O)N[C@@H](CC(=O)O)C(=O)N[C@@H](CCC(=O)O)C(=O)N[C@H](C(=O)N[C@@H](CCC(=O)O)C(=O)N[C@@H](CC1CCCCC1)C(=O)N[C@@H](CC(F)F)C(=O)c1nc2ccccc2o1)C(c1ccccc1)c1ccccc1 (Ac-DE[Dip]E[Cha]-X6)
600

Follow-up item: CC(=O)N[C@@H](CC(=O)O)C(=O)N[C@@H](CCC(=O)O)C(=O)N[C@H](C(=O)N[C@@H](CCC(=O)O)C(=O)N[C@@H](CC1CCCCC1)C(=O)N[C@@H](CC(F)F)C(=O)c1nc2ccccc2s1)C(c1ccccc1)c1ccccc1 (Ac-DE[Dip]E[Cha]-X3)
150

Moving on to the next compound: CC(=O)N[C@@H](CC(=O)O)C(=O)N[C@@H](CCC(=O)O)C(=O)N[C@H](C(=O)N[C@@H](CCC(=O)O)C(=O)N[C@@H](CC1CCCCC1)C(=O)N[C@H](CC(F)F)C(=O)O)C(c1ccccc1)c1ccccc1 (Ac-DE[Dip]E[Cha][X5]-OH)
640

Next compound: CC(=O)N[C@@H](CC(=O)O)C(=O)N[C@@H](CCC(=O)O)C(=O)N[C@H](C(=O)N[C@@H](CCC(=O)O)C(=O)N[C@@H](CC1CCCCC1)C(=O)N[C@@H](CC(F)F)C(=O)C(=O)O)C(c1ccccc1)c1ccccc1 (Ac-DE[Dip]E[Cha]-X7)
0.01

====

# Target entity: Hepatitis C virus serine protease, NS3/NS4A (Hepatitis C virus, UniProt A3EZI9+D2K2A8)
# Assay explanation: Inhibition of hepatitis C virus (HCV) NS3/NS4A serine protease
Numbered stars: 1 amine (or outer) side, 2 acyl side, 3 side chain; on linkers, the order of the positions; unused ones are H or OH. Square brackets hold non-standard residues; d marks the D form. Peptide text beside a SMILES is read from it. * marks the point of attachment. Dip = N[C@H](C(=O)O)C(c1ccccc1)c1ccccc1; X4 = O=C(C(=O)[*:2])[C@H](CC(F)F)N[*:1]; Abu(4,4-F2) = N[C@@H](CC(F)F)C(=O)O; X1 = O=C(c1nccs1)[C@H](CC(F)F)N*; Cha = N[C@@H](CC1CCCCC1)C(=O)O; AllylGly = C=CC[C@H](N)C(=O)O; Abu = CC[C@H](N)C(=O)O; NHBn = c1ccc(CN*)cc1
Readout name: pKi
Please keep in mind that pKi is minus log10 of the molar concentration; only the number is needed.

Item under review: C=CC[C@H](NC(=O)[C@H](CC1CCCCC1)NC(=O)[C@H](CCC(=O)O)NC(=O)[C@@H](NC(=O)[C@H](CCC(=O)O)NC(=O)[C@H](CC(=O)O)NC(C)=O)C(c1ccccc1)c1ccccc1)C(=O)O (Ac-DE[Dip]E[Cha][AllylGly]-OH) . Reported pKi?
7.00

Item: CC(=O)N[C@@H](CC(=O)O)C(=O)N[C@@H](CCC(=O)O)C(=O)N[C@H](C(=O)N[C@@H](CCC(=O)O)C(=O)N[C@@H](CC1CCCCC1)C(=O)N[C@@H](CC(F)F)C(=O)O)C(c1ccccc1)c1ccccc1 (Ac-DE[Dip]E[Cha][Abu(4,4-F2)]-OH)
7.52

Same question, CC(=O)N[C@@H](CC(=O)O)C(=O)N[C@@H](CCC(=O)O)C(=O)N[C@H](C(=O)N[C@@H](CCC(=O)O)C(=O)N[C@@H](CC1CCCCC1)C(=O)N[C@H](C=O)CC(F)F)C(c1ccccc1)c1ccccc1 (Ac-DE[Dip]E[Cha][Abu(4,4-F2)]-aldehyde) this time
9.30

// next record C=CC[C@@H](C=O)NC(=O)[C@H](CC1CCCCC1)NC(=O)[C@H](CCC(=O)O)NC(=O)[C@@H](NC(=O)[C@H](CCC(=O)O)NC(=O)[C@H](CC(=O)O)NC(C)=O)C(c1ccccc1)c1ccccc1 (Ac-DE[Dip]E[Cha][AllylGly]-aldehyde)
8.15

Also CC(=O)N[C@@H](CC(=O)O)C(=O)N[C@@H](CCC(=O)O)C(=O)N[C@H](C(=O)N[C@@H](CCC(=O)O)C(=O)N[C@@H](CC1CCCCC1)C(=O)N[C@@H](CC(F)F)C(=O)c1nccs1)C(c1ccccc1)c1ccccc1 (Ac-DE[Dip]E[Cha]-X1) ?
5.82

Also, CC[C@H](NC(=O)[C@H](CC1CCCCC1)NC(=O)[C@H](CCC(=O)O)NC(=O)[C@@H](NC(=O)[C@H](CCC(=O)O)NC(=O)[C@H](CC(=O)O)NC(C)=O)C(c1ccccc1)c1ccccc1)C(=O)O (Ac-DE[Dip]E[Cha][Abu]-OH) please.
6.15

Next compound up: CC(=O)N[C@@H](CC(=O)O)C(=O)N[C@@H](CCC(=O)O)C(=O)N[C@H](C(=O)N[C@@H](CCC(=O)O)C(=O)N[C@@H](CC1CCCCC1)C(=O)N[C@@H](CC(F)F)C(=O)C(=O)NCc1ccccc1)C(c1ccccc1)c1ccccc1 (Ac-DE[Dip]E[Cha][X4]-NHBn)
8.82

Try the compound CC(=O)N[C@@H](CC(=O)O)C(=O)N[C@@H](CCC(=O)O)C(=O)N[C@H](C(=O)N[C@@H](CCC(=O)O)C(=O)N[C@@H](CC1CCCCC1)C(=O)N[C@@H](CS)C(=O)O)C(c1ccccc1)c1ccccc1 (Ac-DE[Dip]E[Cha]C-OH)
7.40
